Target: T1, human recombinant soluble ACE2 (human, UniProt Q9BYF1 18-740)
T1 construct: also called hrsACE2
T1 sequence (Q9BYF1 18-740 limits assumed): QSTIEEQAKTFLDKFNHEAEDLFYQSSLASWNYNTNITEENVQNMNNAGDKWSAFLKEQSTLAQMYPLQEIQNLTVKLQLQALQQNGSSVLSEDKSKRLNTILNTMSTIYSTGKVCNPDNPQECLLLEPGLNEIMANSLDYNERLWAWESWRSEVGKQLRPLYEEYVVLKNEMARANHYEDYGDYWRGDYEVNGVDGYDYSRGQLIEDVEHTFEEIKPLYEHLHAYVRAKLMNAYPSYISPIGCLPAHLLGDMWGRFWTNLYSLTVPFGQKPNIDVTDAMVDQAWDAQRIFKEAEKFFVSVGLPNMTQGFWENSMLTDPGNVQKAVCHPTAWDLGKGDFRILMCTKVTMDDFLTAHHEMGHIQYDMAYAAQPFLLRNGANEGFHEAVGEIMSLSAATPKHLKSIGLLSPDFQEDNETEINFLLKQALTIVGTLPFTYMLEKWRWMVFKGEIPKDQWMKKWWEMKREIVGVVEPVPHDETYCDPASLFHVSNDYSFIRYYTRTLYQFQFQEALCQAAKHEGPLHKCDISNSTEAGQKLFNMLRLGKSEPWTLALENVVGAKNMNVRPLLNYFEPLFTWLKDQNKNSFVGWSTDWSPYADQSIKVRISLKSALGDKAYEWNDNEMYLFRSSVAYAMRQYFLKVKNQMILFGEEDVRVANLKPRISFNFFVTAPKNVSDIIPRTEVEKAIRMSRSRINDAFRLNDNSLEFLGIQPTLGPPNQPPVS
Assay: ELISA screen
MEASUREMENT_TYPE: Mean normalized OD (OD)
Give bare numbers, in OD.

[[record]]
binder = "Mrc1_8 CRD-mouse IgG2a-Fc fusion protein (Fc fusion) FYGHCYYFESSFTRSWGQASLECLRMGASLVSIETAAESSFLSYRVEPLKSKTNFWIGMFRNVEGKWLWLNDNPVSFVNWKTGDPSGERNDCVVLASSSGLWNNIHCSSYKGFICKGGGSGGGSGGGS"
measurement_type = "Mean normalized OD"
numeric_result = -0.021

[[record]]
binder = "Pla2r1_5 CRD-mouse IgG2a-Fc fusion protein (Fc fusion) YQNAEYLFHTHPAEWATFEFVCGWLRSDFLTIYSAQEQEFIHSKIKGLTKYGVKWWIGLEEGGARDQIQWSNGSPVIFQNWDKGREERVDSQRKRCVFISSITGLWGTENCSVPLPSICKGGGSGGGSGGGS"
measurement_type = "Mean normalized OD"
numeric_result = 0.065

[[record]]
binder = "Klri1 CRD-mouse IgG2a-Fc fusion protein (Fc fusion) FGNNFYCVFKENTKTWAESQSACEELNSHLVIIDSKAEVENLLLFEMDGWILHKMDGTNSSWLWRNDIKIQNTLTNDSEKKNHSCHYLRGNLFMPDECSAKKSYICEGGGSGGGSGGGS"
measurement_type = "Mean normalized OD"
numeric_result = -0.003

[[record]]
binder = "Ly75_6 CRD-mouse IgG2a-Fc fusion protein (Fc fusion) FQNKCFLKVNSGPVTFSQASGICHSYGGTLPSVLSRGEQDFIISLLPEMEASLWIGLRWTAYERINRWTDNRELTYSNFHPLLVGRRLSIPTNFFDDESHFHCALILNLKKSPLTGTWNFTSCSERHSLSLCQKGGGSGGGSGGGS"
measurement_type = "Mean normalized OD"
numeric_result = 0.005


Dear colleague, could you send me Mean normalized OD for each of the items below? Thanks.
1. Clec18a CRD-mouse IgG2a-Fc fusion protein (Fc fusion) IDGDCFMVSPEADTYYGAKMKCQGKGGVLAQIESQKVQDILAFYLGRLETTNEVTDSDFETKNFWIGLTYKAAKDSFRWTTGEHQSFTSFAFGQPDNQGFGNCVEMQASAAFNWNDQRCKTRNRYICQGGGSGGGSGGGS
2. Klrb1 CRD-mouse IgG2a-Fc fusion protein (Fc fusion) HCDKCLFTSQTSRPWADGLVDCNLKGATLLLIQDEEELRLLQNFSKGKGQQFYIGLKYEEVDKVWKWMNGSILNTNLLQITGKDEENSCALISQTEVFSDSCSSDNHWICQGGGSGGGSGGGS
3. Pla2r1_2 CRD-mouse IgG2a-Fc fusion protein (Fc fusion) FNRKCYKLKKDRKSWLGALHSCQSNDSVLMDVASLAEVEFLVSLLRDENASETWIGLSSNKIPVSFEWSSGSSVIFTNWYPLEPRILPNRRQLCVSAEESDGRWKVKDCKERLFYICKGGGSGGGSGGGS
4. Reg3g CRD-mouse IgG2a-Fc fusion protein (Fc fusion) YGSYCYALFSVSKNWYDADMACQKRPSGHLVSVLSGAEASFLSSMIKSSGNSGQYVWIGLHDPTLGYEPNRGGWEWSNADVMNYINWETNPSSSSGNHCGTLSRASGFLKWRENYCNLELPYVCKGGGSGGGSGGGS
5. Ly75_7 CRD-mouse IgG2a-Fc fusion protein (Fc fusion) YLNNLYKIISKPLTWHGALKECMKEKMRLVSITDPYQQAFLAVQATLRNSSFWIGLSSQDDELNFGWSDGKRLQFSNWAGSNEQLDDCVILDTDGFWKTADCDDNQPGAICYYGGGSGGGSGGGS
6. Cd69 CRD-mouse IgG2a-Fc fusion protein (Fc fusion) YKRTCYFFSTTTKSWALAQRSCSEDAATLAVIDSEKDMTFLKRYSGELEHWIGLKNEANQTWKWANGKEFNSWFNLTGSGRCVSVNHKNVTAVDCEANFHWVCSGGGSGGGSGGGS
7. Mrc2_6 CRD-mouse IgG2a-Fc fusion protein (Fc fusion) FLNKCFRIQGQDPQDRVKWSEAQFSCEQQEAQLVTIANPLEQAFITASLPNVTFDLWIGLHASQRDFQWIEQEPLLYTNWAPGEPSGPSPAPSGTKPTSCAVILHSPSAHFTGRWDDRSCTEETHGFICGGGSGGGSGGGS

[-0.013, 0.012, -0.019, -0.014, -0.009, -0.022, -0.019]

Hey, just so you know, these numbers are from patent EP4039268A1.
